Biological target: T1, human tissue factor (TF) on MDA-MB-231, NCI-H358 and HCT116 cells (human, UniProt P13726 33-295)
T1 construct: whole, on cells; also called TF antigen; CD142
Assay: flow cytometry on MDA-MB-231 cells
pEC50 values, listed per item
// returns pEC50 (minus log10 of molar concentration), number only

Below, 4 binders whose answers are already recorded.
binder: hu310-8 (antibody, human IgG1, kappa, V domains shown) VH: EVQLVQSGAEVKKPGASVKVSCKASGYSFTGYYMNWVRQAPGQGLEWMGEINPSTGGSTYNQKFKARVTMTVDQSTSTVYMELSSLRSEDTAVYYCARRELGGPFGYWGQGTTVTVSS VL: SIQMTQSPSSLSASVGDRVTITCKASQSVSTGIAWYQQKPGKSPKLLIYFASNRYTGVPSRFSGSGYGTDFTFTISSLQPEDIATYYCQQDYSSPWTFGGGTKVEIKR
pEC50: 8.76
//
binder: hu310-13 (antibody, human IgG1, kappa, V domains shown) VH: EVQLVQSGAEVKKPGASVKVSCKASGYSFTGYYMNWVRQAPGQGLEWMGEINPSTGGSTYNQKFKARVTLTVDQSTNTAYMELSSLRSEDTAVYYCARRELGGPFGYWGQGTTVTVSS VL: SIQMTQSPSSLSASVGDRVTITCKASQSVSNGIAWYQQKPGKSPKLLIYFASNRYTGVPSRFSGSGYGTDFTFTISSLQPEDIATYYCQQDYSSPWTFGGGTKVEIKR
pEC50: 8.86
//
binder: hu310-11 (antibody, human IgG1, kappa, V domains shown) VH: EVQLVQSGAEVKKPGASVKVSCKASGYSFTGYYMNWVRQAPGQGLEWMGEINPSTGGSTYNQKFKARVTLTVDQSTNTAYMELSSLRSEDTAVYYCARRELGGPFGYWGQGTTVTVSS VL: SIVMTQSPKFLAVSLGERATINCKASQSVSNGIAWYQQKPGQSPKLLIYFASNRYTGVPDRFSGSGYGTDFTFTISSLQAEDVAVYYCQQDYSSPWTFGGGTKVEIKR
pEC50: 8.75
//
binder: hu10H10-39 (antibody, V domains shown, H13+L3 (printed bu10H10-39); Full-length IgG; also called bu10H10-39) VH: EVQLVQSGSELKKPGASVKVSCKASGYTFITYWIEWVKQRPGQGLEWMGDILPGSGWTNYNENFKGRATFSADTSVSTAYLQISSLKAEDTAVYYCARSGYYGNSGFAYWGQGTLVTVSS VL: DIQMTQSPSSLSASVGDRVTITCKSSQSLLSSGNQKNYLTWYQQKPGKAPKLLIYWASTREEGVPSRFSGSGSGTDFTLTISSLQPEDFATYYCQNDYTYPLTFGQGTKLEIK
pEC50: 8.96

# input for lookup
Value of pEC50 reported for the binder hu10H10-77 (antibody, V domains shown, H11+L9; Full-length IgG) VH: EVQLVQSGSELKKPGASVKVSCKASGYTFITYWIEWVKQRPGQGLEWMGDILPYSGSTNYNENFKGRATFSADTSVSTAYLQISSLKAEDTAVYYCARSGYYGNSGFAYWGQGTLVTVSS VL: DIQMTQSPSSLSASVGDRVTITCQSSQSLLSSGNQKNYLTWYQQKPGKAPKLLIYWASTRESGVPSRFSGSGSGTDFTLTISSLQPEDFATYYCQNDYTYPLTFGQGTKLEIK is 8.79
